# study.system: Proteasome subunit beta (Trypanosoma cruzi) (UniProt O96673)
# Sequence (whole entry): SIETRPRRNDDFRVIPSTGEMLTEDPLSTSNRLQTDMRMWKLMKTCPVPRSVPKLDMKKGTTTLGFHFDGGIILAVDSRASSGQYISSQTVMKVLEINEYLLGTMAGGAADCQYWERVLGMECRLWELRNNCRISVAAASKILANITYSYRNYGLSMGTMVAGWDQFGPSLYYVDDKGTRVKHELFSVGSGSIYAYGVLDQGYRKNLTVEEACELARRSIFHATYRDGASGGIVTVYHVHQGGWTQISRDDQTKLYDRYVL
# experimental.protocol: Trypanosoma cruzi proteasome chymotrypsin-like activity (TcProtChymo) assay.
# Type: functional
# Parameters: scale not given: in the data most compounds retested in dose-response had high values
# experimental.context: 9.37 µM
# MET = Percent Effect below 10% (exclusive); NOT MET = Percent Effect at/above 10%

Worked cases, answers included:
CC(C)c1nc(C2CCCN2C(=O)c2nccnc2N)no1 (stereo unspecified); MET
c1ccc(-c2nnn3c2COC(CNCC2CCOCC2)C3)cc1 (stereo unspecified); MET
COC(=O)c1cccc(C(=O)N2CCN(c3ccccc3F)CC2)n1; NOT MET
CO[C@@H]1CC[C@H]2[C@H]1OCCN2C(=O)C1=CCCC1; MET

In plain terms, does `CN(C)C(=O)CN1C[C@@H]2CC[C@H](C1)N(Cc1cccc(Cl)c1Cl)C2` come in under 10% for Percent Effect?
NOT MET

`CCc1nnc2n1CCN(C(=O)CN(C)Cc1ccccc1)C2` , same question.
MET

`CC1(C)CC(N2Cc3nc(N4CCOCC4)ncc3C2=O)CC(C)(C)N1` , same question.
NOT MET

`CCc1cnc(N2C[C@H]3C[C@H](C(=O)N(C)C)[C@@H](C2)O3)nc1` , same question.
MET

CC(C)c1n[nH]c(C2CN(C(=O)C3=COCC3)CCO2)n1 (stereo unspecified) , same question.
MET

CC(=O)NCCNC(=O)CN1CCN(Cc2nccn2C)C(C)C1 (stereo unspecified) , same question.
MET

CC(O)CN1CCN(C(=O)c2cc3ccccc3c(=O)[nH]2)CC1 (stereo unspecified) , same question.
NOT MET
